Cited source for all entries: ChEMBL document CHEMBL1240523

# Lookup of reported inhibition keyed by entry
- Target or test system: NADPH oxidase 4 (Homo sapiens) (UniProt Q9NPH5)
- Sequence (whole entry): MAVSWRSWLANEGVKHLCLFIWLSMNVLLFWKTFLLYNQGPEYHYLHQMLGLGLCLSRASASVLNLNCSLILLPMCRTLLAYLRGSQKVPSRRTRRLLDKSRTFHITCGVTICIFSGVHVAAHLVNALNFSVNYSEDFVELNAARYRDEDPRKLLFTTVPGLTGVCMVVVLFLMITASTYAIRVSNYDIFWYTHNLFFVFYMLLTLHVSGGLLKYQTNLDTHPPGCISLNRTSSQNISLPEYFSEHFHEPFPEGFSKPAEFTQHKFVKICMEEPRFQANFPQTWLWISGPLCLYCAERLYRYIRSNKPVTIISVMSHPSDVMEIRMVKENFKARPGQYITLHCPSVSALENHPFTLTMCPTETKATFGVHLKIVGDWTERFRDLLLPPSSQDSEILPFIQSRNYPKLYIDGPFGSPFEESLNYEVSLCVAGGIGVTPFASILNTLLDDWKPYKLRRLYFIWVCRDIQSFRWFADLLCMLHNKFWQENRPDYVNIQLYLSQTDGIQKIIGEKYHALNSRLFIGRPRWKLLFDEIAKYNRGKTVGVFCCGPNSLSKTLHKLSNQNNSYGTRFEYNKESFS
- Experiment summary: Inhibition of NOX4 expressed in HEK293 FS cells at 10 uM assessed as H2O2 production by H2O2/Tyr/LPO assay
- Assay type: cell-based
All answers are understood in %, so give the number only.

Solved entries:
Query smiles: N#Cc1ccccc1Cn1c(=O)c2cc(O)c(O)cc2c2cc(O)c(O)cc21
Target or test system: NADPH oxidase 4 (Homo sapiens) (UniProt Q9NPH5)
Readout number: 97
--
Query smiles: Nc1cccc(Nc2ncnc3c2sc2ccc(N)cc23)c1
Target or test system: NADPH oxidase 4 (Homo sapiens) (UniProt Q9NPH5)
Readout number: 98
--
Query smiles: O=c1cc(-c2ccc(O)cc2)oc2cc(O)cc(O)c12
Target or test system: NADPH oxidase 4 (Homo sapiens) (UniProt Q9NPH5)
Readout number: 105
--
Query smiles: O=c1cc(-c2ccc(O)c(O)c2)oc2cc(O)cc(O)c12
Target or test system: NADPH oxidase 4 (Homo sapiens) (UniProt Q9NPH5)
Readout number: 106
--
Query smiles: COc1cc(O)c2c(=O)c(OC)c(-c3ccc(O)c(O)c3)oc2c1
Target or test system: NADPH oxidase 4 (Homo sapiens) (UniProt Q9NPH5)
Readout number: 88

Supply inhibition value. Item: O=C(O)c1cc(NCc2cc(O)ccc2O)ccc1O
82
